procedure.text: Cytotoxicity against human HCT15 cells assessed as cell growth inhibition at 10 uM after 48 hrs by SRB assay relative to control
Assay type: functional
particulars: HCT-15, 48 h, read-out: GI
endpoint.label: inhibition of growth at 10 µM (%)
Give bare numbers, in %.

structure.string | unit.string | inhibition of growth at 10 µM
COc1ccc(-c2cccc3c(=O)nc(N4CCOCC4)oc23)cc1 | % | 3.13

Quick batch: inhibition of growth at 10 µM for everything below.
1. O=c1nc(N2CCOCC2)oc2c(-c3ccsc3)cccc12
2. O=c1nc(N2CCOCC2)oc2c(-c3cccc4ccccc34)cccc12
3. O=c1nc(N2CCOCC2)oc2c(-c3cccc4c3sc3ccccc34)cccc12
4. NC(=O)c1ccc(-c2cccc3c(=O)nc(N4CCOCC4)oc23)cc1
5. O=c1nc(N2CCOCC2)oc2c(-c3cccc4c3oc3ccccc34)cccc12

1. 6.07
2. 6.69
3. 13.4
4. -2.19
5. 13.1

Quick batch: inhibition of growth at 10 µM for everything below.
1. O=c1nc(N2CCOCC2)oc2ccc(-c3cccc4c3sc3ccccc34)cc12
2. O=c1nc(N2CCOCC2)oc2c(-c3cccs3)cccc12

[29.8, 0.33]
